Where do these numbers come from? They come from the supplement of paper PMC8728848.

target_entity: Gal(b1-4)GlcNAc(b1-6)[Gal(b1-3)]GalNAc
assay_method_text: glycan array binding signal (z-score within array); higher = stronger binding
experimental_setup: glycan notation: IUPAC condensed, linker removed
The entries come from a sample that favours the strongest signals as a whole.

{"binder": "GH95CBM (Clostridium perfringens) (protein) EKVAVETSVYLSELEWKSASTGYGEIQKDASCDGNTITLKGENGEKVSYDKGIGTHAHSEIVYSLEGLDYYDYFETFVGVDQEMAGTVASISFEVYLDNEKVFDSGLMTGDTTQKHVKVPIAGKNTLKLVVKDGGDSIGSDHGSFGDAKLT", "glycan array binding signal (z-score)": 3.34}
